Attribute: normalized growth
Experimental Details: chemical genetic growth profiling, strain panel (AID 1159580);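 further: tested at 20 µM; growth read once vehicle control cultures reached saturation at 30 °C; 1 = growth at the plate median or of vehicle wells; lower values mean less growth of the strain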
Test Settings: S. cerevisiae deletion strains, growth OD, locus YLR058C, strain SHM2, active compounds read low
The campaign covered roughly 5,500 compounds. About 2,000 (36%) were called active. Another 18% or so got no clear call; they are omitted. Some of the results follow.

Compound	normalized growth
COc1cc2c(cc1O)CCNC2C (stereo not drawn)	0.995
COP(=O)(OC)OC(Br)C(Cl)(Cl)Br (stereo not drawn)	0.979
CC[C@@H](CO)NC(=O)[C@@H]1C=C2c3cccc4[nH]cc(c34)C[C@H]2N(C)C1	0.989
NC[C@H]1O[C@H](O[C@H]2C(O[C@@H]3O[C@H](CO)[C@@H](O)[C@H]3O)[C@@H](O)[C@H](N)C[C@@H]2N)[C@H](N)[C@@H](O)[C@@H]1O (stereo partly drawn)	0.99
CCc1cccc2c3c([nH]c12)C(CC)(CC(=O)O)OCC3 (stereo not drawn)	1.01
CC(=O)[C@@]1(O)CCC2C3CCC4=CC(=O)CC[C@]4(C)C3CC[C@@]21C (stereo partly drawn)	0.987
NC[C@H]1O[C@H](O[C@H]2[C@H](O)[C@@H](O[C@H]3O[C@H](CO)[C@@H](O)[C@H](N)[C@H]3O)[C@H](N)C[C@@H]2N)[C@H](N)C[C@@H]1O	0.994
CC[C@H]1OC(=O)[C@H](C)[C@@H](O[C@H]2C[C@@](C)(OC)[C@@H](O)[C@H](C)O2)[C@H](C)[C@@H](O[C@@H]2O[C@H](C)C[C@H](N(C)C)[C@H]2O)[C@](C)(O)C[C@@H](C)[C@@H]2N[C@@H](COCCOC)O[C@H]([C@H]2C)[C@]1(C)O	1.02
